Exercise: state measured hGIPR CRE Luc EC50 (pM) for each of the binders provided.
Target: T1, human glucose-dependent insulinotropic polypeptide receptor (human, UniProt P48546 22-466)
T1 sequence (looked up): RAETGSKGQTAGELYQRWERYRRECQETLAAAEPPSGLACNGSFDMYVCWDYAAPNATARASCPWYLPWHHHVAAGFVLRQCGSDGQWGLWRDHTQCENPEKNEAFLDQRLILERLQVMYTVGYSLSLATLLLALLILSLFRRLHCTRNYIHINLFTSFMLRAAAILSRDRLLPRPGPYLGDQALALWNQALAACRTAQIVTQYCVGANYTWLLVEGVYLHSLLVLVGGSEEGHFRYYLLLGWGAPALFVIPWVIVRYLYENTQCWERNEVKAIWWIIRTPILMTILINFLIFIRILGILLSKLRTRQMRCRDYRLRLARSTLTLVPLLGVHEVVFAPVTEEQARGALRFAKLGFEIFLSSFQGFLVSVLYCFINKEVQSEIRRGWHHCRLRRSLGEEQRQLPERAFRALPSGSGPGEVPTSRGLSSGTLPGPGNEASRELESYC
Assay: cell-based or functional assay
Where no end group is shown, it is not given here. [ ]: non-standard residue; d: D form. Aib = CC(C)(N)C(=O)O
Numbers only, in pM.

| binder | hGIPR CRE Luc EC50 (pM) |
| --- | --- |
| H[Aib]HGTFTSDYSILLEKQAAREFVQWLLEGGPSSGAPPPS-OH (not fully specified (residue 16); printed as H-Aib-HGTFTSDYSILLE-K[(2S)-2-amino-6-[[(2S)-2-amino-6-[[(4S)-4-carboxy-4-(19-carboxynonadecanoylamino)butanoyl]amino]hexanoyl]amino]hexanoyl]-QAAREFVQWLLEGGPSSGAPPPS-OH) [Compound No. 55] | 7.5 |

// moving on: another record for hGIPR CRE Luc EC50 (pM)
Task: I would be grateful if you could share the reported hGIPR CRE Luc EC50 (pM) for H[Aib]HGTFTSDYSYYLEKKAA[Aib]EFVQWLLEGGPSSGAPPPS-NH2 (not fully specified (residue 16); printed as H-Aib-HGTFTSDYSYYLE-K[(2S)-2-amino-6-[[(2S)-2-amino-6-[[(4S)-4-carboxy-4-(19-carboxynonadecanoylamino)butanoyl]amino]hexanoyl]amino]hexanoyl]-KAA-Aib-EFVQWLLEGGPSSGAPPPS-NH2) [Compound No. 31] .
Result: 9
